Assay: Confirmatory qHTS for inhibitors of SARS-S pseudo-typed particle cell entry
Settings: SARS-S pseudotyped particle cell entry, reporter luminescence; series mostly up to 57.1 µM
Results filed as inconclusive are left out. Calls of active or inactive are those of the source. The call rests on the fitted dose curve.
Form entry, call: pick from 1 = active, 0 = inactive

Use the examples below as a reference point.
O=c1ccc2ccccc2o1: 0
CCN1CCN(Cc2ccc(Nc3ncc(F)c(-c4cc(F)c5nc(C)n(C(C)C)c5c4)n3)nc2)CC1: 1
Cc1c(N)nc(C(CC(N)=O)NCC(N)C(N)=O)nc1C(=O)NC(C(=O)NC(C)C(O)C(C)C(=O)NC(C(=O)NCCc1nc(-c2nc(C(=O)NCCCN[C@@H](C)c3ccccc3)cs2)cs1)C(C)O)C(O[C@@H]1O[C@@H](CO)[C@@H](O)[C@H](O)[C@@H]1O[C@H]1O[C@H](CO)[C@@H](O)[C@H](OC(N)=O)[C@@H]1O)c1cnc[nH]1 (stereo not given in full): 1
CCc1c2c(nc3ccc(OC(=O)N4CCC(N5CCCCC5)CC4)cc13)-c1cc3c(c(=O)n1C2)COC(=O)[C@]3(O)CC: 0

Short answer needed: outcome of this test for "C=CC(=O)Nc1cc(Nc2nccc(-c3cn(C)c4ccccc34)n2)c(OC)cc1N(C)CCN(C)C" ?
1

These entries and their values trace back to PubChem BioAssay AID1479148.
